# target.or.test.system: PDZRN4_1, Q6ZMN7
# Sequence (Q6ZMN7 213-318): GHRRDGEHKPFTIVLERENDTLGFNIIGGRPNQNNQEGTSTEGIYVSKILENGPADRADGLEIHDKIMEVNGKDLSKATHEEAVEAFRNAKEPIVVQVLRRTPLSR
# assay.text: holdup assay
# Set-up: key: below the threshold = too weak to quantify, mostly under pKd 3.1 to 4
# experimental.context: plain residues with an end cap or a label only (N-terminal biotin on a linker: ado-ado)
measurement.name: pKd

> print(dat)
                          binder  measurement.name               result
 1    MHIQEKGFHV [EPHA6, Q9UF33]               pKd  below the threshold
 2      EPQYQPGENL [SRC, P12931]               pKd                 3.52
 3  PYSESDDDWC [CACNA1A, O00555]               pKd  below the threshold
 4      PYPTADHMLA [JUP, P14923]               pKd  below the threshold
 5    ELSATVTTDC [TRIP6, Q15654]               pKd  below the threshold
 6    REEPDHSTEV [CCRL2, O00421]               pKd                 4.17
 7   NTANRRTTPV [CACNG2, Q9Y698]               pKd  below the threshold
 8    VLYPREGTEV [FOXI1, Q12951]               pKd                 4.25
 9   RDPPAEWTRV [PTPN18, Q99952]               pKd  below the threshold
10  EDPRVEVTQF [SLC22A9, Q8IVM8]               pKd  below the threshold
11   QRPYRRGSEI [KCNJ18, B7U540]               pKd  below the threshold
12  PSHPRLQTHV [KIRREL2, Q6UWL6]               pKd  below the threshold
13    ARSAAASNYV [CLDN4, O14493]               pKd                 3.66
14     KPGKGSETVV [FZD4, Q9ULV1]               pKd                 3.51
15    PPGKHLVTEV [KCNA7, Q96RP8]               pKd  below the threshold
16    EDGESWEYQI [TRPV6, Q9H1D0]               pKd  below the threshold

These measurements were taken from paper PMC9482650.
